# Tested Target: Factor X, P00742
# Sequence (P00742 whole entry, looked up): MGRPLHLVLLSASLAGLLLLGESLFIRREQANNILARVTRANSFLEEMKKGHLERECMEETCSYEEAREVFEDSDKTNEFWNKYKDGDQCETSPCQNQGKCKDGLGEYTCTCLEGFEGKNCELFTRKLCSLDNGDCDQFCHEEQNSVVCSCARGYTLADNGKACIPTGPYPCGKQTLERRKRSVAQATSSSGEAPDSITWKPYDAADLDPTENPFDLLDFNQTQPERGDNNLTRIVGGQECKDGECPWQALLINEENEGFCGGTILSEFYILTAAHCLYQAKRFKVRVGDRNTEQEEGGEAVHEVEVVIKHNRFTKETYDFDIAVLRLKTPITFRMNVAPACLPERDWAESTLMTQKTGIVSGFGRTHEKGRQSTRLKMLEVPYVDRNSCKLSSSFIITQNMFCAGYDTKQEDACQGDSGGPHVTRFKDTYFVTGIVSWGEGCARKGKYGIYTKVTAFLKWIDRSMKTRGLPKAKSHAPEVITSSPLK
Would you mind telling me the reported % of WT kcat/KM of each entry?
Your reply should be a number followed by the unit it is expressed in.

Enquiry: I am curious: what % of WT kcat/KM value has been reported for FIXa-R318Y/T343R/R403E/E410N (protein) chain 1: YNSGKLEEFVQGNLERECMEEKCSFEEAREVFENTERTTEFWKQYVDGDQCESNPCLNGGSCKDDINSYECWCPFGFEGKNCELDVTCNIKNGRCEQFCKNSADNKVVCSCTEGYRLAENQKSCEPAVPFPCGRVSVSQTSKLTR chain 2: VVGGEDAKPGQFPWQVVLNGKVDAFCGGSIVNEKWIVTAAHCVETGVKITVVAGEHNIEETEHTEQKRNVIRIIPHHNYNAAINKYNHDIALLELDEPLVLNSYVTPICIADKEYTNIFLKFGSGYVSGWGRVFHKGYSALVLQYLRVPLVDRATCLRSTKFRIYNNMFCAGFHEGGRDSCQGDSGGPHVTEVEGTSFLTGIISWGEECAMKGKYGIYTKVSEYVNWIKNKTKLT ?
Return: 125%

Enquiry: I am curious: what % of WT kcat/KM value has been reported for FIXa-R318Y/R338E/R403E/E410N (mature FIX numbering) (protein) chain 1: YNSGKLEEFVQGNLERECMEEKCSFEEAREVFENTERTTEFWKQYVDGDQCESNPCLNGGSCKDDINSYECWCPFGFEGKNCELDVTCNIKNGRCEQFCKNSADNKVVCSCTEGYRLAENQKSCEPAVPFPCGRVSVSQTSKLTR chain 2: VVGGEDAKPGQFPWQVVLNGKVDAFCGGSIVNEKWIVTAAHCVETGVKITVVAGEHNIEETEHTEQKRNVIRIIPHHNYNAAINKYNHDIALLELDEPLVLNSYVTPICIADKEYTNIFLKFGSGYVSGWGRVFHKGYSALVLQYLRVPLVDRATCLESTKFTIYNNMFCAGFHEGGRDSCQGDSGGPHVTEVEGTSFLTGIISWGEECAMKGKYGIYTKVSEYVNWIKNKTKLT ?
Return: 262%

Enquiry: I am curious: what % of WT kcat/KM value has been reported for FIXa-R318Y/R338E/T343R/R403E/E410S (protein) chain 1: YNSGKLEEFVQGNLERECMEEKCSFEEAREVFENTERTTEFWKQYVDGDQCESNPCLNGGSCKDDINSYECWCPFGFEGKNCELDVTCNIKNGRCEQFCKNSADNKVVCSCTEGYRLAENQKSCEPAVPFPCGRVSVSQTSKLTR chain 2: VVGGEDAKPGQFPWQVVLNGKVDAFCGGSIVNEKWIVTAAHCVETGVKITVVAGEHNIEETEHTEQKRNVIRIIPHHNYNAAINKYNHDIALLELDEPLVLNSYVTPICIADKEYTNIFLKFGSGYVSGWGRVFHKGYSALVLQYLRVPLVDRATCLESTKFRIYNNMFCAGFHEGGRDSCQGDSGGPHVTEVEGTSFLTGIISWGEECAMKGKYGIYTKVSEYVNWIKSKTKLT ?
Return: 962%

Enquiry: I am curious: what % of WT kcat/KM value has been reported for FIXa-Y155F/K247N/N249S/R318Y/R338E/R403E (protein) chain 1: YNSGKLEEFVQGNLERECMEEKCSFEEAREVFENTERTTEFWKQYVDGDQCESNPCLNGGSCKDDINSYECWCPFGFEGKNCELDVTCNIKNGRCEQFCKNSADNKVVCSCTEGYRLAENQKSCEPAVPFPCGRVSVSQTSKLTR chain 2: VVGGEDAKPGQFPWQVVLNGKVDAFCGGSIVNEKWIVTAAHCVETGVKITVVAGEHNIEETEHTEQNRSVIRIIPHHNYNAAINKYNHDIALLELDEPLVLNSYVTPICIADKEYTNIFLKFGSGYVSGWGRVFHKGYSALVLQYLRVPLVDRATCLESTKFTIYNNMFCAGFHEGGRDSCQGDSGGPHVTEVEGTSFLTGIISWGEECAMKGKYGIYTKVSEYVNWIKEKTKLT ?
Return: 206%

Enquiry: I am curious: what % of WT kcat/KM value has been reported for FIXa N260S/R318Y/R338E/R403E/E410N (protein) chain 1: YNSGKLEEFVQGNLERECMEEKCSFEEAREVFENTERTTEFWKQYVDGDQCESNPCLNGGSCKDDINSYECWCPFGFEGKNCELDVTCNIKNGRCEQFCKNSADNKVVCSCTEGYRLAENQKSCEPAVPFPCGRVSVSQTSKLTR chain 2: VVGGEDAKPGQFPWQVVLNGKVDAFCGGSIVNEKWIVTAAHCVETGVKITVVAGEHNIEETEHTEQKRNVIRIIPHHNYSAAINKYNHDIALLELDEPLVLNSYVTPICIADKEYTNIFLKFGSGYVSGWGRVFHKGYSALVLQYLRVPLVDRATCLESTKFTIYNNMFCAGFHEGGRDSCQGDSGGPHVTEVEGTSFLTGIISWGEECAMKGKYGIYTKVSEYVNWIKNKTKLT ?
Return: 114%

Enquiry: I am curious: what % of WT kcat/KM value has been reported for FIXa-Y155F/K247N/N249S/R318Y/R338E/E410N (protein) chain 1: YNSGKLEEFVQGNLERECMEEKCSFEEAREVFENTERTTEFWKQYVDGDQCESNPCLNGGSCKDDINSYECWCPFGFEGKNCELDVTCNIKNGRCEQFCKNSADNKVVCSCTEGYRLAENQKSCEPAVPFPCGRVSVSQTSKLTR chain 2: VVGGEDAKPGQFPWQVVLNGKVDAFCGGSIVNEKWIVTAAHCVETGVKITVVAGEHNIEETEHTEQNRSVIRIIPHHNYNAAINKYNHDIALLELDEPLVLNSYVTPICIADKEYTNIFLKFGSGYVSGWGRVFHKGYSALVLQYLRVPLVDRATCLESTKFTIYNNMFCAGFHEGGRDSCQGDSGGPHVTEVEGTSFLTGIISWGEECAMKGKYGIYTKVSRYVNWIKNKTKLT ?
Return: 674%

Enquiry: I am curious: what % of WT kcat/KM value has been reported for FIXa-R318Y/R338E/T343R/E410N (protein) chain 1: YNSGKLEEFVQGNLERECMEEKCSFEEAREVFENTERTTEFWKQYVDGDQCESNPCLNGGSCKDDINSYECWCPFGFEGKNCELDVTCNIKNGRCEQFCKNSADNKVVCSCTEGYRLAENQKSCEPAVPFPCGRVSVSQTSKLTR chain 2: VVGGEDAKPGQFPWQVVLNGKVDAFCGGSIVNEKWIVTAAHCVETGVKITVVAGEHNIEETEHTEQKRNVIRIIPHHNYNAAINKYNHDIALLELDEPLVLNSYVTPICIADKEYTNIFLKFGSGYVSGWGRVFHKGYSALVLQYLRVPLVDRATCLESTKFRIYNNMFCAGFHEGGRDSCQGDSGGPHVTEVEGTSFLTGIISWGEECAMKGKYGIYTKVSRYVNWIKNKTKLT ?
Return: 728%
